B1: EDARADD (parent)
chain: VEKVLRRWVDEEWPKRERGDPSRH

# Variants of: B1
# assay-explanation: protein stability index of a GFP-peptide fusion (GPS, HEK-293T) (PSI 1-6); higher = more stable;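 note: lentivirally expressed fusions sorted by FACS into six bins by GFP to DsRed ratio, PSI derived from sequencing read proportions per bin multiplied by bin number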
# condition-context: c terminus: a fixed tail appended
Reported protein stability index values follow for various variants
A bare number is all that is needed in reply.

Ask | I am curious: what protein stability index value has been reported for `E17N` ?
Reply | 2.84

Ask | Follow-up entry: `V1E`
Reply | 4.19

Ask | Entry to check: `R18V`
Reply | 2.99
